meta.source: patent US20160287696A1

The following molecules are listed with their measured No of PG+ & th+ peptides per NTGA values.
Test system: cultured PBMCs of the allergic donors
Test Name: ELISPOT of IL-5 or IFNg production by cultured PBMCs of TG allergic donors in response to peptide
Type: cell-based, human
Applied Conditions: Table 6; PG+ peptides recognized by T cells of grass allergic donors (n=20)
Quantity: No of PG+ & th+ peptides per NTGA

Molecule	Measured Number
NTGA 51: Phl p wild type sequence, Table 2 (protein, Phleum Pratense) MSPAEPTREESVYMAKLAEQAERYEEMVEFMERVAKATGGAGPGEELSVEERNLLSVAYKNVIGARRASWRIISSIEQKEEGRGNDAHATTIRSYRSKIEAELAKICDGILALLDSHLVPSAGAAESKVFYLKMKGDYHRYLAEFKSGAERKEAAESTMNSYKAAQDIALADLAPTHPIRLGLALNFSVFYYEILNSPDRACNLAKQAFDEAISELDSLGEESYKDSTLIMQLLRDNLTLWTSDTNEDGGDEIKEAPAPKESGD	2
NTGA 32: Phl p wild type sequence, Table 2 (protein, Phleum Pratense) MAPIKIGINGFGRIGRLVARVALQCPDVELVAVNDPFITTDYMTYMFKYDTVHGQWKHHDVKVKDAKTLLFGEKEVAVFGCRNPEEIPWGAAGADYVVESTGVFTDKDKAAAHIKGGAKKVIISAPSKDAPMFVCGVNEKEYTSDITIVSNASCTTNCLAPLAKVINDRFGIVEGLMTTVHAMTATQKTVDGPSSKDWRGGRAASFNIIPSSTGAAKAVGKVLPVLNGKLTGMAFRVPTVDVSVVDLTVRLEKAATYEQIKAAIKEESEGNLKGILGYVDEDLVSTDFQGDSRSSIFDAKAGIALNDNFVKLVSWYDNEWGYSTRVVDLIRHIHATK	4
